// data source = the supplement of paper PMC10567573

Listed here are variants together with their documented protein stability index.
B1: PPFIA4 (parent)
chain: VMTLPSDLRKHRRKLLSPVSREEN

Variants of: B1
PROTOCOL_TEXT: protein stability index of a GFP-peptide fusion (GPS, HEK-293T) (PSI 1-6); higher = more stable;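 note: lentivirally expressed fusions sorted by FACS into six bins by GFP to DsRed ratio, PSI derived from sequencing read proportions per bin multiplied by bin number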
MEASUREMENT_CONTEXT: c terminus: a fixed tail appended
Form: value (number only, do not type unit).

{"VARIANT_DESCRIPTOR": "S6V", "ASSAY_ENDPOINT": "protein stability index", "EXPERIMENTAL_VALUE": 2.4}
{"VARIANT_DESCRIPTOR": "N24A", "ASSAY_ENDPOINT": "protein stability index", "EXPERIMENTAL_VALUE": 4.02}
{"VARIANT_DESCRIPTOR": "M2S", "ASSAY_ENDPOINT": "protein stability index", "EXPERIMENTAL_VALUE": 3.69}

So what's the measured protein stability index for this one? `T3Y`
2.5

Request the reported protein stability index associated with `R21W`
3.32

What does the data say about its protein stability index? Entry: `N24K`
4.04
